Recorded values, source ChEMBL document CHEMBL4513146.

test system: Cryptococcus neoformans; conditions: Concentration 32 ug.mL-1; ASSAY_TEST Inhibition of Fungal Growth; detection method Resazurin; Absorption (OD600-OD570); plate type 384well; NBS; CORNING #3640
Description: Antifungal activity against Cryptococcus neoformans H99 ATCC 208821 (CO-ADD:FG_002); MIC in YNB media using NBS plates, by Resazurin OD(600-570)
Measured potencies and affinities stand elsewhere.
The label is t for Inhibition below -20% and f for Inhibition equal to or exceeding -20%.

| SMILES_REPR | TGT | LABEL_CLASS |
| --- | --- | --- |
| Cc1ccc(NC(=O)Cn2nc3cc(C)nc(Nc4ccc(F)c(C)c4)n3c2=O)cc1 | Cryptococcus neoformans | f |

Consider now this further molecule.
Threshold test, Inhibition < -20%: CCOC(=O)c1ccccc1NC(=O)Cn1nc2c(Oc3ccc(C)cc3)nccn2c1=O
f

====

tested on: Cryptococcus neoformans; conditions: Concentration 32 ug.mL-1; ASSAY_TEST Inhibition of Fungal Growth; detection method Resazurin; Absorption (OD600-OD570); plate type 384well; NBS; CORNING #3640
Entries with a potency or affinity are not part of this list.
MEASUREMENT_TYPE: Inhibition (%)
// note: answer is a bare numeric in %

// solved cases for Inhibition follow
| MOLECULE | MEASUREMENT_UNIT | REPORTED_MEASUREMENT |
| --- | --- | --- |
| COc1ccc(CN(c2cc(C)cc(C)c2)S(=O)(=O)c2cccn3cnnc23)cc1F | % | -10.15 |
| Cc1ccc(NC(=O)Cn2c(=O)c3nnc(C(C)C)n3c3ccccc32)cc1C | % | -12.38 |
| O=C(NCc1ccccc1)c1ccc2nn(CC(=O)N3CCN(c4ccc(F)cc4)CC3)c(=O)n2c1 | % | -7.39 |
| CCc1ccc(N(Cc2cccc(OC)c2)S(=O)(=O)c2cccn3cnnc23)cc1 | % | -10.89 |

Return reported Inhibition; argument: COCCCNC(=O)CSc1nnc2c(=O)n(Cc3ccccc3)ccn12
-23.49

How about this molecule: CCc1nnc2c(S(=O)(=O)N(Cc3cccc(F)c3)c3ccc(F)cc3)cccn12
-2.23

Entry Cc1ccc(-c2ccc3nn(Cc4cccc(Br)c4)c(=O)n3n2)cc1 please
-13.72

Another molecule: COc1ccc(OC)c(NC(=O)Cn2nc3ccc(-c4ccc(Cl)cc4)nn3c2=O)c1
-17.15

Query CCCCn1c(=O)c2sccc2n2c(SCc3cccc(C(F)(F)F)c3)nnc12 next
-14.78

====

Reported Inhibition values are given for each entry in this list.
test system: Cryptococcus neoformans; conditions: Concentration 32 ug.mL-1; ASSAY_TEST Inhibition of Fungal Growth; detection method Resazurin; Absorption (OD600-OD570); plate type 384well; NBS; CORNING #3640
Entries with a potency or affinity are not part of this list.
Write the number in % without appending the unit.

If you can, please state the reported Inhibition value of CCCn1c(=O)c2sccc2n2c(=O)n(Cc3ccc(Cl)cc3)nc12 .
-22.99

Request: Cc1cccc(C)c1NC(=O)Cn1nc2c3c4c(sc3ncn2c1=O)CCCC4
-19.68

Next entry: CC1CCN(C(=O)Cn2nc3n(Cc4cccs4)c(=O)c4sccc4n3c2=O)CC1
-10.95

One more compound: O=C(Cn1nc2c(Sc3ccccc3)nccn2c1=O)Nc1cc(F)ccc1F
-12.37

====

tested on: Candida albicans; details: Concentration 32 ug.mL-1; ASSAY_TEST Inhibition of Fungal Growth; detection method Absorption (OD530)
Description: Antifungal activity against Candida albicans ATCC 90028 (CO-ADD:FG_001); MIC in YNB media using NBS plates, by OD630
Entries with a potency or affinity are not part of this list.
Recorded Inhibition values for a group of molecules are listed next.
Respond with the bare value in %.

Record excerpt, results attached:
| MOLECULE | MEASUREMENT_UNIT | Inhibition |
| --- | --- | --- |
| Cc1ccc(NC(=O)CSc2nnc3c(=O)n(-c4ccc(C)c(C)c4)ccn23)c(Cl)c1 | % | 0.25 |
| COc1ccc(NC(=O)C(C)Sc2nnc3c(=O)n(-c4ccccc4)ccn23)cc1 (stereo not given) | % | 1.79 |
| O=C(Cn1nc2c3c4c(sc3ncn2c1=O)CCCC4)Nc1ccc2c(c1)OCO2 | % | 4.71 |
| Cc1nnc2c(=O)n(CC(=O)Nc3ccccc3Br)c3ccccc3n12 | % | 2.04 |

--- query ---
Fill blank: measured Inhibition of the molecule Cc1ccc(C)c(NC(=O)Cn2nc3n(C)c(=O)c4c(c(-c5ccccc5)cn4C)n3c2=O)c1 is ____.
1.95
